molecular target: human glycolate oxidase (hGO) (Homo sapiens); construct: His-tag (6 histidines, pET-15b) (N); made in house; host or cells: E. coli BL21 (DE3); test: In vitro inhibition of human glycolate oxidase (enzymatic assay, HRP-coupled Trinder reaction); type: biochemical

>  <COMPOUND>
O=C(O)c1nn[nH]c1Oc1ccc(-c2ccc(Br)cc2)cc1 [Example 10]

>  <IC50>
< 100 nM

$$$$
>  <COMPOUND>
COc1ccc(Oc2[nH]nnc2C(=O)O)cc1 [Example 46]

>  <IC50>
< 100 nM

$$$$
>  <COMPOUND>
O=C(O)c1nn[nH]c1Oc1ccccc1 [Example 45]

>  <IC50>
> 200 nM

$$$$
>  <COMPOUND>
O=C(O)c1nn[nH]c1Oc1ccc(C2CCCC2)cc1 [Example 69]

>  <IC50>
100 to 200 nM

$$$$
>  <COMPOUND>
Cc1ccc(-c2ccc(Oc3[nH]nnc3C(=O)O)cc2)cc1 [Example 31]

>  <IC50>
< 100 nM

$$$$
>  <COMPOUND>
O=C(O)c1nn[nH]c1Oc1ccc(-c2ccccc2)cc1 [Example 42]

>  <IC50>
100 to 200 nM

$$$$
>  <COMPOUND>
Cc1cc(Oc2[nH]nnc2C(=O)O)ccc1Br [Example 71]

>  <IC50>
< 100 nM

$$$$
>  <COMPOUND>
O=C(O)c1nn[nH]c1Oc1ccc(Cl)c(F)c1 [Example 8]

>  <IC50>
100 to 200 nM

$$$$
>  <COMPOUND>
N#Cc1cccc(-c2ccc(Oc3[nH]nnc3C(=O)O)cc2)c1 [Example 20]

>  <IC50>
100 to 200 nM

$$$$
>  <COMPOUND>
COc1ccc(-c2ccc(Oc3[nH]nnc3C(=O)O)cc2)cc1 [Example 22]

>  <IC50>
100 to 200 nM

$$$$
>  <COMPOUND>
O=C(O)c1nn[nH]c1Sc1ccc(Br)cc1 [Example 52]

>  <IC50>
100 to 200 nM

$$$$
>  <COMPOUND>
O=C(O)c1nn[nH]c1Oc1ccc(Cl)cc1 [Example 36]

>  <IC50>
< 100 nM

$$$$

* * *

target: human glycolate oxidase (hGO) (Homo sapiens, UniProt Q9UJM8); construct: His-tag (6 histidines, pET-15b) (N); made in house; host or cells: E. coli BL21 (DE3); test: In vitro inhibition of human glycolate oxidase (enzymatic assay, HRP-coupled Trinder reaction); assay type: biochemical; details: recombinant hGO, 40 mM glycolic acid, pH 7, read at 515 nm, 1 minute after initiation of Trinder reaction; read-out: % Inhibition;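 for % Inhibition: values are IC50 potency bins despite the % Inhibition label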
Sequence (Q9UJM8 whole entry): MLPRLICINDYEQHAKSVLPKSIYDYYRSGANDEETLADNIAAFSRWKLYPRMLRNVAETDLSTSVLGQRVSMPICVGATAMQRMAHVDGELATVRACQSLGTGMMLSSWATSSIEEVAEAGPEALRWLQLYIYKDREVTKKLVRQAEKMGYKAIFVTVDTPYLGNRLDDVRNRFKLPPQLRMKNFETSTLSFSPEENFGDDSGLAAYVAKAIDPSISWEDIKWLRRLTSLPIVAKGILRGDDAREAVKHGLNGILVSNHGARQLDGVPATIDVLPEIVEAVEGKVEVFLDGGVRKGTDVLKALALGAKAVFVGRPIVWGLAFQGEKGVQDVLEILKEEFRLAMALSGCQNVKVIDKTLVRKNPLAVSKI

>  <COMPOUND>
O=C(O)c1nn[nH]c1Oc1ccc(-c2ccccc2OC(F)F)cc1

>  <IC50>
100 to 200 nM

$$$$
>  <COMPOUND>
COc1ccc(-c2ccc(Oc3[nH]nnc3C(=O)O)cc2OC)cn1

>  <IC50>
< 100 nM

$$$$
>  <COMPOUND>
O=C(O)c1nn[nH]c1Oc1ccccc1Br

>  <IC50>
> 200 nM

$$$$
>  <COMPOUND>
Cc1ccc(-c2ccc(Oc3[nH]nnc3C(=O)O)cc2C)c(F)n1

>  <IC50>
< 100 nM

$$$$
>  <COMPOUND>
O=C(O)c1nn[nH]c1Oc1cccnc1F

>  <IC50>
> 200 nM

$$$$
>  <COMPOUND>
Cc1ncc(-c2cccc(Oc3[nH]nnc3C(=O)O)c2)cn1

>  <IC50>
< 100 nM

$$$$
>  <COMPOUND>
O=C(O)c1nn[nH]c1Oc1ccc(-c2ccnc(F)c2)cc1

>  <IC50>
< 100 nM

$$$$
>  <COMPOUND>
CC(C)(C)c1ccc(-c2ccc(Oc3[nH]nnc3C(=O)O)cc2)cc1

>  <IC50>
100 to 200 nM

$$$$
>  <COMPOUND>
Cc1cc(-c2ccc(Oc3[nH]nnc3C(=O)O)cc2)cnc1F

>  <IC50>
< 100 nM

$$$$
>  <COMPOUND>
Cc1cncc(-c2ccc(Oc3[nH]nnc3C(=O)O)cc2)c1

>  <IC50>
< 100 nM

$$$$
>  <COMPOUND>
O=C(O)c1nn[nH]c1Oc1ccc(-c2ccc(C3CC3(F)F)cc2)cc1 (centres unmarked)

>  <IC50>
100 to 200 nM

$$$$
>  <COMPOUND>
O=C(O)c1nn[nH]c1Oc1ccc(C23CC(C2)C3)cc1

>  <IC50>
< 100 nM

$$$$
>  <COMPOUND>
COc1cc(Oc2[nH]nnc2C(=O)O)ccc1Br

>  <IC50>
< 100 nM

$$$$
>  <COMPOUND>
Cc1ccc(-c2ccc(Oc3[nH]nnc3C(=O)O)cc2)c(F)n1

>  <IC50>
< 100 nM

$$$$
>  <COMPOUND>
O=C(O)c1nn[nH]c1Oc1ccc(Br)c(C(F)(F)F)c1

>  <IC50>
> 200 nM

$$$$
>  <COMPOUND>
CS(=O)(=O)Nc1ccc(-c2ccc(Oc3[nH]nnc3C(=O)O)cc2)cc1

>  <IC50>
< 100 nM

$$$$
>  <COMPOUND>
O=C(O)c1nn[nH]c1Oc1cccc(Br)c1

>  <IC50>
100 to 200 nM

$$$$
>  <COMPOUND>
CS(=O)(=O)c1ccc(-c2ccc(Oc3[nH]nnc3C(=O)O)c(F)c2)cc1

>  <IC50>
100 to 200 nM

$$$$
>  <COMPOUND>
O=C(O)c1nn[nH]c1Oc1ccc(-c2ccc(-c3cccnc3)cc2)cc1

>  <IC50>
100 to 200 nM

$$$$
>  <COMPOUND>
O=C(O)c1nn[nH]c1Oc1ccc(N2CCOCC2)cc1

>  <IC50>
> 200 nM

$$$$

Taken from patent US11401246B2.
